Tested on: HOP-92 NSCLC
Assay: NCI-60 one-dose screen, 48 h
Conditions: 10 µM unless noted
The panel holds about 83,000 compounds, 20% with a hit somewhere; the sample as a whole holds those more often. Activity calls are given as the source filed them. How the source made its calls: active means growth percent below 10; inactive means the rest.
In this exercise, the only acceptable responses are active, inactive

[[record]]
molecule = "Cc1cc(C(=O)NOCCO)c(Nc2ccc(I)cc2F)n(C)c1=O"
cat = "active"

[[record]]
molecule = "CC(CCCC(=O)O)c1ccoc1 (stereo not given)"
cat = "inactive"

[[record]]
molecule = "COc1ccc2c(CCCCC(c3ccccc3)c3ccccc3)c3[n+](cc2c1OC)CCc1cc2c(cc1-3)OCO2"
cat = "active"

[[record]]
molecule = "Nc1c(Cl)cccc1[N+](=O)[O-]"
cat = "inactive"

[[record]]
molecule = "Clc1nc(Cl)c2ncn(C/C=C\\Cn3cnc4c(Cl)nc(Cl)nc43)c2n1"
cat = "active"


Please share the test call associated with `CN(c1ncccc1CNc1nc(Nc2ccc3c(c2)CC(=O)N3)ncc1C(F)(F)F)S(C)(=O)=O` . active

Identify the outcome logged in this assay for the molecule shown: CC(=O)c1cnc2ccc(-c3cc(Cl)c(O)c(Cl)c3)nc2c1NC1CCC(CN(C)C)CC1 (stereo not given) active

For `O=c1nc2c(-c3nc4ccccc4s3)n[nH]n2c2sc3c(c12)CCCC3` , what call appears in the results of this test? inactive

# fetch the recorded call for O=C1C=CC2(NN=C(c3ccccc3)N2c2ccc(Cl)cc2)c2cccc(O)c21 (stereo not given) here inactive

Would you mind telling me which call this test gave `O=C(COc1ccc(/C=C2\Cc3ccc(Cl)cc3C2=O)cc1)Nc1nccs1` ? inactive

GET /call?item= COC[C@@H](C)n1c(C2CCOCC2)nc2c1C1C=C(OC)C(c3c(C)noc3C)=CC1N=C2 (stereo not given in full) returns the recorded outcome of this test. inactive

In this assay, the call recorded for `C/C=C/C=N/NC(=S)Nc1ccccc1` was what? inactive

Per the records of this test, what outcome belongs to `COc1cc(OC)c(/C=C/S(=O)(=O)Cc2ccc(OC)c(NCC(=O)O)c2)c(OC)c1` ? inactive

Each molecule tested received a call. Report the one for `Cc1cnc(Nc2ccc(OCCN3CCCC3)cc2)nc1Nc1cccc(S(=O)(=O)NC(C)(C)C)c1` . active
